B1: DLC1 (parent)
chain: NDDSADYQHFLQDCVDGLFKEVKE

variants of: B1; experiment: protein stability index of a GFP-peptide fusion (GPS, HEK-293T) (PSI 1-6); higher = more stable; conditions: c terminus: a fixed tail appended;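 further: lentivirally expressed fusions sorted by FACS into six bins by GFP to DsRed ratio, PSI derived from sequencing read proportions per bin multiplied by bin number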
RECORDED METRIC: protein stability index
One number for each entry.

Please review the following examples before continuing.
# VARIANT LABEL, OBSERVED
records = [
    ("C14R", 4.87),
    ("A5N", 2.9),
    ("E24D", 2.33),
    ("E21K", 2.57),
]

Hey, quick one: what's protein stability index for each of these?
1. V22L
2. A5E
3. K20P

[3.32, 2.92, 4.86]

Could you tell me protein stability index for each of these variants? They are listed below.
1. S4L
2. D13N
3. L18A
4. L18N
5. E24T
6. D2L
7. F19Y

2.91
2.38
5.02
5.43
2.81
2.37
2.94

Give one value of protein stability index per listed variant.
1. D16Y
2. D6Y
3. Y7E
4. L18K
5. D6P
6. K23I
7. G17I
8. L11S

[2.21, 2.94, 4.11, 5.3, 3.38, 1.9, 2.19, 5.1]

Return reported protein stability index values for all items listed beneath this line.
1. V22E
2. F19I
3. K20V

5.42
2.72
3.56
